system: EKVX; experiment: NCI tumour cell line growth inhibition, 48 h
Active and inactive are the calls of the source. Rule as the data show it: active = GI50 up to about 1.1 µM and inactive = higher.
Reported GI50 values follow for various compounds
value.kind: GI50

{"compound": "COc1ccc2[nH]c3c(C)c4c(c(C)c3c2c1)CN(C)C=C4", "system.tested": "EKVX", "obs.value": "2.49 µM (inactive)"}
{"compound": "COC(=O)c1ccccc1C#CC#Cc1ccccc1C(=O)OC", "system.tested": "EKVX", "obs.value": "> 10 µM (inactive)"}
{"compound": "Nc1nc(Cl)cc(NCCO)n1", "system.tested": "EKVX", "obs.value": "> 100 µM (inactive)"}
{"compound": "CC(NNC(=O)c1ccncc1)c1ccc(Cl)c(Cl)c1 (configuration not stated)", "system.tested": "EKVX", "obs.value": "> 100 µM (inactive)"}
{"compound": "COc1ccc(/C=C\\c2cc(OC)c(OC)c(OC)c2)c(O)c1O", "system.tested": "EKVX", "obs.value": "1.99 µM (inactive)"}
{"compound": "C=C1CC(C)(COc2ccc3c(C)c(Cl)c(=O)oc3c2)OC1=O (configuration not stated)", "system.tested": "EKVX", "obs.value": "5.9 µM (inactive)"}
{"compound": "FC1=C2C3CCC(C3)C2C1(F)F (configuration not stated)", "system.tested": "EKVX", "obs.value": "> 100 µM (inactive)"}

---

tested on: EKVX; assay: NCI tumour cell line growth inhibition, 48 h
Calls of active or inactive are those of the source. Cut-off read from the data, not from the text of the source: active = GI50 up to about 1.1 µM and inactive = higher.
Outcome codes: active, inactive

{"molecule": "[O-]/[N+](=C\\c1ccccc1OC(=S)S)c1ccc(Cl)cc1", "assigned.category": "inactive"}
{"molecule": "C/C(=N\\Nc1ccc2ccccc2n1)c1ccccc1O", "assigned.category": "inactive"}
{"molecule": "C1CCSCCCCSCCCCSCCCCSC1", "assigned.category": "inactive"}
{"molecule": "COC1CC(O[C@H]2CC[C@@]3(C)[C@@H](CC[C@]4(O)[C@@H]3CC[C@]3(C)[C@@H](C(C)=O)[C@H](OC(=O)CC(C)C)[C@@H](OC(=O)c5ccccc5)[C@@]34O)C2)OC(C)C1OC1CC(OC)C(OC2OC(C)C(O)C(OC)C2O)C(C)O1 (some centres undefined)", "assigned.category": "inactive"}
{"molecule": "O=c1oc2cc(O)ccc2cc1-c1nc2ccccc2s1", "assigned.category": "inactive"}
{"molecule": "C[C@]12CCc3nonc3C1CC[C@@H]1C2CC[C@]2(C)C(=O)CCC12 (some centres undefined)", "assigned.category": "inactive"}
{"molecule": "CC1=C(C(=O)N[C@@H](CC(C)C)C(=O)O)N2C(=O)[C@@H](NC(=O)[C@@H](N)Cc3ccccc3)[C@H]2SC1", "assigned.category": "inactive"}
{"molecule": "CC12CCCCC1=[N+]([O-])C(C)(C)N2O (centres undefined)", "assigned.category": "inactive"}
{"molecule": "O=C(/C=C/c1ccc(OCCCOc2ccc(/C=C/C(=O)c3ccc(Cl)cc3)cc2)cc1)c1ccc(Cl)cc1", "assigned.category": "inactive"}
{"molecule": "Cc1cc(SCC(=O)c2ccccc2)nc2ccccc12", "assigned.category": "inactive"}
{"molecule": "CN1CCC(CNC(=O)CCCCCCCCC(=O)NCC2(c3ccccc3)CCN(C)CC2)(c2ccccc2)CC1", "assigned.category": "inactive"}
{"molecule": "C=CC(=O)C#Cc1cnc(OC)nc1OC", "assigned.category": "inactive"}
{"molecule": "CC1=NN(C(=O)CC(=O)Nc2ccc(Cl)cc2)C(=O)C1/N=N\\c1ccc(S(=O)(=O)c2ccc(/N=N/C3C(=O)N(C(=O)CC(=O)Nc4ccc(Cl)cc4)N=C3C)cc2)cc1 (centres undefined)", "assigned.category": "inactive"}
{"molecule": "CN/N=C(\\C(=O)Nc1ccc([N+](=O)[O-])cc1[N+](=O)[O-])C1NC(=O)NC1=O (centres undefined)", "assigned.category": "inactive"}
{"molecule": "O=C(O)C1SCCS1", "assigned.category": "inactive"}
{"molecule": "COc1cccc(-c2cc(O)c3cc(Cl)cnc3n2)c1", "assigned.category": "inactive"}
{"molecule": "Clc1c2ncccc2cc2nn[nH]c12", "assigned.category": "inactive"}
{"molecule": "O=C(O)c1cc2ccccc2c(/N=N/c2ccc(S(=O)(=O)Nc3ncccn3)cc2)c1O", "assigned.category": "inactive"}
{"molecule": "C(=N/NC1=NCCN1)/c1c2ccccc2c(/C=N\\NC2=NCCN2)c2ccccc12", "assigned.category": "active"}

---

tested on: KM12; experiment: NCI tumour cell line growth inhibition, 48 h
Where a name gives a salt, the structure may show the parent alone. The source made the active and inactive calls. No stated cut-off is given here; in the data, active = GI50 up to about 1.1 µM and inactive = higher.
Outcome codes: active, inactive

{"compound": "COC1/C=C/C(C)C(C(C)C(OC)C(C)CCC(=O)C(C)C(CCC(=O)O)OC)OC(=O)/C=C/C=C(\\C)CC(OC)CC2=CC(=O)O[C@@H](C(C)C(OC)CC(OC)/C=C/C(C)C(OC)C1)[C@H]2O (stereo not given in full)", "assigned.category": "inactive"}
{"compound": "N=C(NC(=N)Nc1ccc(S(=O)(=O)Nc2cnc3ccccc3n2)cc1)Nc1ccc(Br)cc1", "assigned.category": "inactive"}
{"compound": "Cc1cccc(C(C)(C)C)c1NC(=O)C(C#N)C1=C(Cl)C(=O)c2ccccc2C1=O (stereo not given)", "assigned.category": "inactive"}
{"compound": "COc1ccc(C2SCC(=O)N2c2ccc(-n3c(-c4ccccc4)nc4ccccc4c3=O)cc2)cc1OC (stereo not given)", "assigned.category": "inactive"}
{"compound": "CC1OC(OC2C[C@](O)(C(=O)CF)Cc3c(O)c4c(c(O)c32)C(=O)c2ccccc2C4=O)CC(N)C1O (stereo not given in full)", "assigned.category": "active"}
{"compound": "C=CCN1C(=O)NC(=O)/C(=C/c2c3ccccc3cc3ccccc23)C1=O", "assigned.category": "inactive"}
{"compound": "COc1cccc(NC(=O)C(=O)C2C=CCS2(=O)=O)c1 (stereo not given)", "assigned.category": "inactive"}
{"compound": "NC1=NC(c2ccccc2)CC(c2cc(Cl)cc(Br)c2O)=N1 (stereo not given)", "assigned.category": "inactive"}
{"compound": "COc1cccc(NC(=O)C(C)(C)C)c1C=O", "assigned.category": "inactive"}
{"compound": "Cc1nn(C(=O)Cc2ccccc2)c2c1C(c1ccccc1O)SC(=N)N2 (stereo not given)", "assigned.category": "inactive"}
{"compound": "COc1ccc(-c2c(N)[n+]([O-])c3ccccc3[n+]2[O-])cc1OC", "assigned.category": "inactive"}
{"compound": "Cc1ccc(NC(=O)c2ccccc2C(=O)O)cc1C", "assigned.category": "inactive"}
{"compound": "CCOC(=O)CO/N=C1/C(=C2/C(=O)Nc3ccccc32)Nc2ccccc21", "assigned.category": "active"}
{"compound": "Cc1cc(SCC(=O)c2ccccc2)nc2ccccc12", "assigned.category": "inactive"}
{"compound": "CCc1nnc(CC)n1N1C(=O)CCC1=O", "assigned.category": "inactive"}
{"compound": "Cc1cc(C#N)c(Nc2ccc(F)cc2[N+](=O)[O-])s1", "assigned.category": "inactive"}
{"compound": "O=C(O)c1cc2ccccc2c(/N=N/c2ccc(S(=O)(=O)Nc3ncccn3)cc2)c1O", "assigned.category": "inactive"}
{"compound": "COc1ccc(OC)c2sc(N3C(=O)/C(=C/Cc4ccco4)N=C3c3ccccc3)nc12", "assigned.category": "inactive"}
{"compound": "FC1=C2C3CCC(C3)C2C1(F)F (stereo not given)", "assigned.category": "inactive"}
{"compound": "Cc1cccc(Nc2nc3ccccc3nc2NS(=O)(=O)c2ccc(N)cc2)c1", "assigned.category": "inactive"}
{"compound": "CSC(=S)NNC(=O)c1ccncc1", "assigned.category": "inactive"}
{"compound": "COC(=O)[C@]1(c2cc3ccccc3[nH]2)CC2CN(CC(=O)N(C)OC)C1CC2(OC)OC (stereo not given in full)", "assigned.category": "inactive"}
{"compound": "COc1ccc(C2(C3c4cc(OC)c(OC)cc4CCN3C)SCCCS2)cc1O (stereo not given)", "assigned.category": "inactive"}
{"compound": "COC(=O)c1ccccc1C#CC#Cc1ccccc1C(=O)OC", "assigned.category": "inactive"}
{"compound": "c1ccc(-c2c(-c3cccs3)[nH]c(-c3cccs3)c2-c2ccccn2)nc1", "assigned.category": "inactive"}
{"compound": "O=C(/C=C(\\Nc1ccccc1O)c1ccc(Br)cc1)C(Cl)(Cl)Cl", "assigned.category": "inactive"}
{"compound": "CC[C@@]1(O)C(=O)OCc2c1cc1n(c2=O)Cc2cc3c(CN(C)C)c(O)ccc3nc2-1 [TOPOTECAN HYDROCHLORIDE]", "assigned.category": "active"}
{"compound": "NCCCNCCCCN1CCOC1=O", "assigned.category": "inactive"}
{"compound": "CN(C(=O)c1ccc(Cl)cc1)C(=S)N1CCN(c2ccccn2)CC1", "assigned.category": "inactive"}
{"compound": "COc1ccc2c(=O)c(-c3cc4c(cc3OC)OCO4)coc2c1", "assigned.category": "inactive"}
{"compound": "CCOP(=O)(OCC)C(C(=O)OC)C(=O)C(=O)Nc1cccc([N+](=O)[O-])c1 (stereo not given)", "assigned.category": "inactive"}
{"compound": "CN1c2ccccc2S(=O)(=O)n2c(COc3ccccc3)nnc21", "assigned.category": "inactive"}
{"compound": "C[C@@]12C(=O)OC(=O)[C@]1(C)[C@H]1CC[C@@H]2O1", "assigned.category": "inactive"}
{"compound": "CCN(CCCl)c1cc(CN(C)C)cc(NC(=O)c2ccc(C(=O)Nc3cccc(CN(C)C)c3)cc2)c1", "assigned.category": "inactive"}
{"compound": "C=C(C)C(=O)O[C@H]1C/C(CO)=C/CCC(=C)C(OC(C)=O)[C@H]2OC(=O)C(=C)[C@H]12 (stereo not given in full)", "assigned.category": "inactive"}
{"compound": "[O-][n+]1c2cc3c(cc2[n+]([O-])c2c(O)cccc21)CN(CCN1CCOCC1)C3", "assigned.category": "inactive"}
{"compound": "COc1cccc2c1C(=O)c1c(O)c3c(c(O)c1C2=O)C[C@@](O)(C(=O)CO)CC3OC1CC(NCCCC(OC(C)=O)OC(C)=O)C(O)C(C)O1 (stereo not given in full)", "assigned.category": "active"}
{"compound": "COC1OC(CO)C(O)C(OC(=O)c2cc(O)c(O)c(O)c2)C1OC(=O)c1cc(O)c(O)c(O)c1 (stereo not given)", "assigned.category": "inactive"}
{"compound": "CC1(C)SC2C(NC(=O)Cc3ccccc3)C(=O)N2C1C(=O)O (stereo not given)", "assigned.category": "inactive"}
{"compound": "C=C1C=CC2(Br)OC3CC(C)(Cl)C(Br)CC13C2(C)C (stereo not given)", "assigned.category": "inactive"}
